Experimental Target: Cytochrome P450 2C18 (Homo sapiens)
Test Name: NVS_ADME_hCYP2C18: NovaScreen (NVS) CYP450-related Enzyme Activity (ADME) Assay for human CYP2C18 (AID 2283103)
Procedure: NVS_ADME_hCYP2C18 is a biochemical, single-readout assay that uses extracted gene-proteins in a cell-free assay. Measurements were taken 0.5 hour after chemical dosing in a 96-well plate.NVS_ADME_hCYP2C18 is one of one assay component(s) measured or calculated from the NVS_ADME_hCYP2C18 assay. […] This assay endpoint, NVS_ADME_hCYP2C18, was analyzed in the positive analysis fitting direction relative to Acetonitrile as the negative control and baseline of activity. […]
The source made the active and inactive calls. Rule for the calls: active = hit-call score of the fitted dose curve at least 0.9, where 1 is the maximum; inactive = score below 0.9.
Outcome (select one): active, inactive

compound=C=C(C)[C@H]1Cc2c(ccc3c2O[C@@H]2COc4cc(OC)c(OC)cc4[C@@H]2C3=O)O1 assigned_label=active
compound=S=C1NCCN1 assigned_label=inactive
compound=CCOP(=S)(OCC)Oc1ccc2c(C)c(Cl)c(=O)oc2c1 assigned_label=active
compound="FC(F)C(F)(F)OCC(Cn1cncn1)c1ccc(Cl)cc1Cl (stereo not drawn)" assigned_label=active
compound="C#CCC1=C(C)C(OC(=O)C2C(C=C(C)C)C2(C)C)CC1=O (stereo not drawn)" assigned_label=active
compound=CC[C@H](C)[C@H]1O[C@]2(C=C[C@@H]1C)C[C@@H]1C[C@@H](C/C=C(\C)[C@@H](O[C@H]3C[C@H](OC)[C@@H](O[C@H]4C[C@H](OC)[C@@H](NC)[C@H](C)O4)[C@H](C)O3)[C@@H](C)/C=C/C=C3\CO[C@@H]4[C@H](O)C(C)=C[C@@H](C(=O)O1)[C@]34O)O2 assigned_label=active
compound="CC(C)=CC1C(C(=O)OCN2C(=O)C3=C(CCCC3)C2=O)C1(C)C (stereo not drawn)" assigned_label=active
compound="CCOC(=O)CC(SP(=O)(OC)OC)C(=O)OCC (stereo not drawn)" assigned_label=inactive

Problem: Which result was noted for this compound in the test: C#CC(C)(C)NC(=O)c1cc(Cl)cc(Cl)c1
Result: active

Problem: // param item: CCCSP(=O)(OCC)Oc1ccc(Br)cc1Cl (stereo not drawn) ; yields the recorded call
Result: active

Problem: Lab log entry: C[Si](Cn1cncn1)(c1ccc(F)cc1)c1ccc(F)cc1 — outcome as called in the assay?
Result: active

Problem: Look up the recorded call for CON=C(C(=O)OC)c1ccccc1CON=C(C)c1cccc(C(F)(F)F)c1 in this test.
Result: active

Problem: Look up the recorded call for COc1ccc(C(=CC(=O)N2CCOCC2)c2ccc(Cl)cc2)cc1OC in this test.
Result: active
